biological target: FGFR1 (Homo sapiens); construct: made in house; host or cells: E. coli derived from BL21, infected with T7 phage; test: Kinase binding assay (kinase-tagged T7 phage, affinity beads, qPCR readout), FGFR1; conditions: FGFR binding data
Sequence (P11362 22-822): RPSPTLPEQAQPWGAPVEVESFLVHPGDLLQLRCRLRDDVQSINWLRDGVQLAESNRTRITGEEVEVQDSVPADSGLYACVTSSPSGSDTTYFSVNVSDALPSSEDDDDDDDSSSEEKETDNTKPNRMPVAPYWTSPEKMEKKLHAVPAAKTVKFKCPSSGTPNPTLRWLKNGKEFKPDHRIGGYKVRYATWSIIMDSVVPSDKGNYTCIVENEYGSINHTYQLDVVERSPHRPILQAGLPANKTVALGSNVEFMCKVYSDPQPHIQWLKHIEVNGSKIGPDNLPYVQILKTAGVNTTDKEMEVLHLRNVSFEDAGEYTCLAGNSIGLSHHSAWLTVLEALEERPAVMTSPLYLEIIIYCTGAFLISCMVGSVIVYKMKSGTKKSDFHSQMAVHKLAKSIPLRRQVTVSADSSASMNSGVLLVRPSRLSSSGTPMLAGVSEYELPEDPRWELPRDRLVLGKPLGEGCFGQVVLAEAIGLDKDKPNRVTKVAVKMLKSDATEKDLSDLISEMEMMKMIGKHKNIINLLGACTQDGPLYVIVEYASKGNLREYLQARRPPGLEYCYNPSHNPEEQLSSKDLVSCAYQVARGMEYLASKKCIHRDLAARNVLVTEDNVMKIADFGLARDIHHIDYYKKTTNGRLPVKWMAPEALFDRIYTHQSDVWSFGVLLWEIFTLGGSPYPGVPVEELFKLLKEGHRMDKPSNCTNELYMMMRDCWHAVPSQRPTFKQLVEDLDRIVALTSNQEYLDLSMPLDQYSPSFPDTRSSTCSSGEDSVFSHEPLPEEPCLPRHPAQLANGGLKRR
observation.type: Kd

>>> recorded_measurement("C=CC(=O)Nc1ccc2c(c1)c(C)cn2-c1nc(Nc2cccc(OCCN3CCOCC3)c2)ncc1C")
"0.1 to 100 nM"

Briefly, Kd measured for C=CC(=O)Nc1ccc2c(c1)c(C)cn2-c1nc(Nc2cnn(CC(C)OC)c2)ncc1F (stereo not shown) : 0.1 to 100 nM

So for C=CC(=O)Nc1ccc2c(-c3nc(Nc4ccc(N5CCOCC5)cc4)ncc3Cl)cn(C)c2c1 , the logged Kd turned out to be 0.1 to 100 nM

Kindly note the recorded Kd for C=CC(=O)Nc1ccc2c(c1)c(C)cn2-c1nc(Nc2ccnn2C)ncc1F , which is 100 to 250 nM

----------
Biological target: FGFR1 (Homo sapiens)
Construct: made in house; host or cells: E. coli derived from BL21, infected with T7 phage
Test: Kinase binding assay (kinase-tagged T7 phage, affinity beads, qPCR readout), FGFR1
Details: FGFR binding data
Protocol: Kinase-tagged T7 phage strains were prepared in an E. coli host derived from the BL21 strain. E. coli were grown to log-phase and infected with T7 phage and incubated with shaking at 32° C. until lysis. The lysates were centrifuged and filtered to remove cell debris. […] Test compounds were prepared as 111× stocks in 100% DMSO. Kds were determined using an 11-point 3-fold compound dilution series with three DMSO control points. […] The kinase concentration in the eluates was measured by qPCR. […]
observation.type: Kd

Previously resolved entries follow.
>>> recorded_measurement("C=CC(=O)Nc1ccc2c(c1)c(C)cn2-c1ncnc(Nc2cnn(C)c2)n1")
"0.1 to 100 nM"
>>> recorded_measurement("C=CC(=O)Nc1ccc2c(-c3ccnc(Nc4cc(C)n(C)n4)n3)cn(C)c2c1")
"250 to 1000 nM"
>>> recorded_measurement("C=CC(=O)Nc1ccc2c(c1)c(C)cn2-c1nc(Nc2ccc(CN3CCOCC3)c(F)c2)ncc1Cl")
"0.1 to 100 nM"
>>> recorded_measurement("Cc1cn(-c2nc(Nc3cnn(C)c3C)ncc2F)c2ncc(NC(=O)/C=C/CN(C)C)cc12")
"100 to 250 nM"
>>> recorded_measurement("C=CC(=O)Nc1ccc2c(c1)cc(C)n2-c1nc(Nc2cnn(C)c2)ncc1F")
"100 to 250 nM"
>>> recorded_measurement("C=CC(=O)Nc1ccc2c(c1)c(C)cn2-c1nc(Nc2cnn(C)c2)ncc1Cl")
"0.1 to 100 nM"

So, C=CC(=O)Nc1cc(C)c2c(c1)c(C)cn2-c1nc(Nc2cnn(C)c2)ncc1Cl [Example 84] ? Its Kd was 0.1 to 100 nM

Field Kd (entry C=CC(=O)Nc1ccc2c(c1)c(C)nn2-c1nc(Nc2ccnn2C)ncc1C ) reads > 1000 nM

----------
molecular target: FGFR3 (V555M) (Homo sapiens, UniProt P22607, V555M); construct: made in house; host or cells: E. coli derived from BL21, infected with T7 phage; experiment: Kinase binding assay (kinase-tagged T7 phage, affinity beads, qPCR readout), FGFR3 (V555M); conditions: FGFR binding data
Sequence (P22607 23-806 V555M): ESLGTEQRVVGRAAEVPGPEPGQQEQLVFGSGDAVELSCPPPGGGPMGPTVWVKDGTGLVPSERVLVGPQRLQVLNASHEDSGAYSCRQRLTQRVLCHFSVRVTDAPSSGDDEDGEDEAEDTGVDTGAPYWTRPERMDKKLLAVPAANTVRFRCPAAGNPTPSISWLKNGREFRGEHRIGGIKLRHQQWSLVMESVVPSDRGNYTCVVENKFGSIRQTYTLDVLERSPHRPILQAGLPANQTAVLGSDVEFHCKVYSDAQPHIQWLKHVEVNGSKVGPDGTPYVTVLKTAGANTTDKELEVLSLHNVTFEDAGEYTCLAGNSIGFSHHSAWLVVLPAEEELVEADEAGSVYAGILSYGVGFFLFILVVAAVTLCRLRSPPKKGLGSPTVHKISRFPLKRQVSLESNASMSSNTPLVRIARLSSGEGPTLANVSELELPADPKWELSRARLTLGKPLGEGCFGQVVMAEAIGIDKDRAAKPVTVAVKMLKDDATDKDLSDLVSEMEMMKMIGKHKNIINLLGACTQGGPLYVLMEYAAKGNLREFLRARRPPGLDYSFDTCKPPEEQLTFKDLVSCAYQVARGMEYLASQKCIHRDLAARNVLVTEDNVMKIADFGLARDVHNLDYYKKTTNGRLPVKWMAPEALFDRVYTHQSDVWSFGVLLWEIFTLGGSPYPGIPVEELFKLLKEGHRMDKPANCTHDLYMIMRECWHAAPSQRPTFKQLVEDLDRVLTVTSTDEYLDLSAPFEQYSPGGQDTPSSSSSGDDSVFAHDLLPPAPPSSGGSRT
// values below are reported Kd

For orientation, consider the following solved cases.
>>> recorded_measurement("C=CC(=O)Nc1cnc2c(c1)c(C)cn2-c1nc(Nc2ccn(C)n2)ncc1C")
"0.1 to 100 nM"
>>> recorded_measurement("C=CC(=O)Nc1ccc2c(c1)c(C)cn2-c1nc(Nc2cnn(C3CCN(CC)CC3)c2)ncc1Cl")
"0.1 to 100 nM"
>>> recorded_measurement("C=CC(=O)Nc1ccc2c(ccn2-c2nc(Nc3cnn(C)c3)ncc2Cl)c1")
"0.1 to 100 nM"
>>> recorded_measurement("C#CC(=O)Nc1ccc2c(c1)c(C)cn2-c1nc(Nc2cnn(CCO)c2)ncc1F")
"0.1 to 100 nM"
>>> recorded_measurement("Cc1nn(C)cc1Nc1ncc(F)c(-n2cc(C)c3cc(NC(=O)/C=C/CN4CCOCC4)cnc32)n1")
"> 1000 nM"
>>> recorded_measurement("C=CC(=O)Nc1ccc2c(c1)c(C)cn2-c1nc(Nc2conc2C)ncc1F")
"0.1 to 100 nM"
>>> recorded_measurement("C=CS(=O)(=O)Nc1ccc2c(c1)c(C)cn2-c1nc(Nc2ccnn2C)ncc1C")
"0.1 to 100 nM"

Okay, now this compound:
The reported FGFR3 (V555M) (Homo sapiens, UniProt P22607, V555M) Kd of C=CC(=O)Nc1ccc2c(-c3ccnc(Nc4ccn(CCO)n4)n3)cn(C)c2c1 is 100 to 250 nM
